B1: Poly(rC)-binding protein 1, residues 278 to 350; numbered along this chain, Q15365 (parent)
chain: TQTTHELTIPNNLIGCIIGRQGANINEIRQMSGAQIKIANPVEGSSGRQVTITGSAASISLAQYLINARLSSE

variants of: B1; experiment: abundance fitness (aPCA) (normalised: wild type 0, dead -1); higher = more abundant; growth selection in yeast, the domain comes from the species named; conditions: Homo sapiens
MEASURED ENDPOINT: abundance fitness
Answers are plain numbers.

Please review the entries below; each comes with its answer.
{"columns": ["VARIANT DESCRIPTOR", "abundance fitness"],
 "data": [
  ["P10S", -0.274],
  ["S60G", -0.05]
]}

List the reported abundance fitness of each variant below.
1. Q30C
2. P10K

1: -0.341; 2: -0.181

Give one value of abundance fitness per listed variant.
1. L65P
2. I28V
3. Q35Y
4. R29V
5. N12T

-0.779
-0.257
-0.231
-0.129
-0.053

For every item below, please supply its abundance fitness.
1. T53I
2. L61M

1: -0.125; 2: 0.001

Hi team, please reply with abundance fitness for each item in this list.
1. S55K
2. I17L
3. S58E
4. G54T
5. G47W
6. V50D

[-0.25, -0.022, 0.052, -0.854, -0.073, -0.796]

Required: abundance fitness, one value per variant below.
1. I66H
2. I28F

[0.299, -0.65]

List reported abundance fitness for each of these variants:
1. G47R
2. A23L
3. N67A
4. Q49D
5. R29C
6. N40P

-0.062
-0.22
-0.152
-0.263
-0.205
-0.002

Would you mind giving abundance fitness for every variant in the list below?
1. G44N
2. R20P
3. A23Q
4. P10I
5. N12K

1. -0.12
2. 0.155
3. 0.05
4. -0.696
5. -0.004

Return reported abundance fitness values for all items listed beneath this line.
1. A56D
2. L61W
3. I18H

[-0.029, -0.238, -0.767]
